What hepatocyte CLint at 0.3 µmol/L was measured for each of the following?
Assay: Hepatocyte intrinsic clearance with and without ABT (human)
Format: in vitro ADME
Conditions: cryopreserved human hepatocytes, with 1 mmol/L ABT, 30 minutes pre-incubation; human hepatocytes, 0.3 µmol/L compound, 1 mmol/L ABT pre‐incubation 30 minutes; read-out: Clint with ABT
Answers are plain numbers, in µL/min/1e6 cells.

C[C@H]1c2cccc(CC(C)(C)O)c2C[C@H](CO)N1C(=O)Cc1c(Cl)cccc1Cl [DPTQ] ... 5.5

Now let's try a different one.
Please look at this compound and report its hepatocyte CLint at 0.3 µmol/L: Cc1ccc([C@@H]2O[C@H](CO)[C@@H](O)[C@H](O)[C@H]2O)cc1Cc1ccc(-c2ccc(F)cc2)s1 [Canagliflozin]
10.1

###

Experiment: Plasma pharmacokinetics after single intravenous administration in bile duct cannulated (BDC) and intact beagle dogs
Assay type: in vivo, beagle dog
Conditions: male, beagle, dog, plasma, iv, 0.5 mg/kg, intact dog, 0.5 mg/kg IV bolus; read-out: V dss
value-kind: Vd (L/kg)
Give bare numbers, in L/kg.

Quick one: give measured Vd for Cc1ccc([C@@H]2O[C@H](CO)[C@@H](O)[C@H](O)[C@H]2O)cc1Cc1ccc(-c2ccc(F)cc2)s1
0.72

###

Assay: Plasma pharmacokinetics after single intravenous administration in bile duct cannulated (BDC) and intact beagle dogs
Type: in vivo, beagle dog
Settings: male, beagle, dog, plasma, iv, 0.5 mg/kg, BDC dog, 0.5 mg/kg IV bolus, plasma, mean ± SD n=4; read-out: AUC0‐48 hr
Task for the reader: assign each of the following molecules its reported AUC.
One number for each entry, in µM·h.

C[C@H]1c2cccc(CC(C)(C)O)c2C[C@H](CO)N1C(=O)Cc1c(Cl)cccc1Cl ... 5.89

Consider the record given below.
Return AUC for the following molecule: Cc1ccc([C@@H]2O[C@H](CO)[C@@H](O)[C@H](O)[C@H]2O)cc1Cc1ccc(-c2ccc(F)cc2)s1
15.7

###

Test: Plasma pharmacokinetics after single intravenous administration in bile duct cannulated (BDC) and intact beagle dogs
Format: in vivo, beagle dog
Conditions: male, beagle, dog, plasma, iv, 0.5 mg/kg, intact dog, 0.5 mg/kg IV bolus, plasma clearance
value-kind: clearance (mL/min/kg)
Numbers only, in mL/min/kg.

Look up clearance of Cc1ccc([C@@H]2O[C@H](CO)[C@@H](O)[C@H](O)[C@H]2O)cc1Cc1ccc(-c2ccc(F)cc2)s1 [Canagliflozin] and report it.
0.93

###

Test: Plasma pharmacokinetics after single intravenous administration in bile duct cannulated (BDC) and intact beagle dogs
Type: in vivo, beagle dog
Settings: male, beagle, dog, plasma, iv, 0.5 mg/kg, intact dog, 0.5 mg/kg IV bolus
value-kind: AUC(0-inf) (µM·h)
Numbers only, in µM·h.

State its AUC(0-inf) for this compound: Cc1ccc([C@@H]2O[C@H](CO)[C@@H](O)[C@H](O)[C@H]2O)cc1Cc1ccc(-c2ccc(F)cc2)s1 [Canagliflozin]
21.2

###

Tested on: UGT (glucuronidation)
Assay: Kidney microsomal glucuronidation assay (human)
Assay type: in vitro ADME
Conditions: kidney microsomes, pH 7.5, human, with 2% BSA, ND = Clint < 1.8, read-out: Clint, Kidney microsomes
value-kind: microsomal CLint at 2 µmol/L (µL/min/mg)
Numbers only, in µL/min/mg.

Please tell me the measured microsomal CLint at 2 µmol/L for Cc1ccc([C@@H]2O[C@H](CO)[C@@H](O)[C@H](O)[C@H]2O)cc1Cc1ccc(-c2ccc(F)cc2)s1 [Canagliflozin] ; system: UGT (glucuronidation).
4

###

Test system: UGT (glucuronidation)
Experiment: Liver microsomal glucuronidation assay (dog)
Type: in vitro ADME
Conditions: liver microsomes, pH 7.5, dog, without BSA, Clint divided by microsomal unbound fraction, read-out: Clint,u, Liver microsomes
value-kind: microsomal CLint at 2 µmol/L (µL/min/mg)
Numbers only, in µL/min/mg.

Kindly indicate its recorded microsomal CLint at 2 µmol/L. Item: C[C@H]1c2cccc(CC(C)(C)O)c2C[C@H](CO)N1C(=O)Cc1c(Cl)cccc1Cl [DPTQ]
123

###

Target: P-gp (Homo sapiens, UniProt P08183)
Construct: host or cells: MDCKII
Sequence (P08183 whole entry): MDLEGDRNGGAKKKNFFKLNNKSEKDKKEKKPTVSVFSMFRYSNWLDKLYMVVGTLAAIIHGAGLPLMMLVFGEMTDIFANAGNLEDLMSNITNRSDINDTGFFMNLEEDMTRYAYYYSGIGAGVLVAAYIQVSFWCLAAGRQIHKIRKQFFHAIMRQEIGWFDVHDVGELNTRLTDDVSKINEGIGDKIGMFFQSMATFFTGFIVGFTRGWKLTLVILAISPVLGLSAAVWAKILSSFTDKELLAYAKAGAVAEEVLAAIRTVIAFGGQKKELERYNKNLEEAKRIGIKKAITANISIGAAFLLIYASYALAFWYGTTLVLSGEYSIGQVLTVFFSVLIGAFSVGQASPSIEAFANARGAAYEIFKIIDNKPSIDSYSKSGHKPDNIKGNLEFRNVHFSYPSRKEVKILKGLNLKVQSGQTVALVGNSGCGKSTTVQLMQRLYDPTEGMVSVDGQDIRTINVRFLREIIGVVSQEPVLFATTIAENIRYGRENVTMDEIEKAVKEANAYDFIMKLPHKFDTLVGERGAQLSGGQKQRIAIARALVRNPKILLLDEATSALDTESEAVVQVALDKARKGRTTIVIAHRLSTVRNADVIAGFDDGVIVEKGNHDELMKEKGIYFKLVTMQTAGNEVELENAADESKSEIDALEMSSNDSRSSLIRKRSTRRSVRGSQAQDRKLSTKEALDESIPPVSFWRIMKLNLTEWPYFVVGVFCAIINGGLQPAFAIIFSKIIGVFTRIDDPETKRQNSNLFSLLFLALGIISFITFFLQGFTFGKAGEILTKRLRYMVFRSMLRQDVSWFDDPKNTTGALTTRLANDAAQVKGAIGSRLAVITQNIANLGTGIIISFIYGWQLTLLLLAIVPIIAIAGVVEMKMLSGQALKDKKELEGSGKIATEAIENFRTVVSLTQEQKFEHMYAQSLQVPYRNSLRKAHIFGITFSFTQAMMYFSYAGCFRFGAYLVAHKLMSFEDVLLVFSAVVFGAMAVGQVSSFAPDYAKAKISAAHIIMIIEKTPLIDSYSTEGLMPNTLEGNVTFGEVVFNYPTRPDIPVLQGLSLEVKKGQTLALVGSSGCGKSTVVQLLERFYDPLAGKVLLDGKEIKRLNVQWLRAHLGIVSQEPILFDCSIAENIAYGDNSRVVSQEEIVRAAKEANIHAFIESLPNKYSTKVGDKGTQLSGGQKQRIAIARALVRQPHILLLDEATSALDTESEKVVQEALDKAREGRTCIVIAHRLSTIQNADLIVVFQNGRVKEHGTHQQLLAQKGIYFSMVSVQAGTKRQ
Assay: Bi‐directional transport across MDCKII cells expressing human P‐gp
Type: in vitro ADME
Conditions: human, MDCK-MDR1, with 2.5 μmol/L LSN335984, uninhibited ratio divided by inhibited ratio; NER >3.0 = P‐gp substrate; read-out: Net efflux ratio
value-kind: efflux ratio at 60 min, 5 μmol/L
Give bare numbers.

Name the recorded efflux ratio at 60 min, 5 μmol/L of C[C@H]1c2cccc(CC(C)(C)O)c2C[C@H](CO)N1C(=O)Cc1c(Cl)cccc1Cl , assay system P-gp (Homo sapiens, UniProt P08183).
1.3

###

System: UGT (glucuronidation)
Assay: Kidney microsomal glucuronidation assay (human)
Type: in vitro ADME
Details: kidney microsomes, pH 7.5, human, with 2% BSA, Clint divided by microsomal unbound fraction, read-out: Clint,u, Kidney microsomes
value-kind: microsomal CLint at 2 µmol/L (µL/min/mg)
Answers are plain numbers, in µL/min/mg.

Name the recorded microsomal CLint at 2 µmol/L of Cc1ccc([C@@H]2O[C@H](CO)[C@@H](O)[C@H](O)[C@H]2O)cc1Cc1ccc(-c2ccc(F)cc2)s1 , assay system UGT (glucuronidation).
222

###

Experiment: Plasma pharmacokinetics after single intravenous administration in bile duct cannulated (BDC) and intact beagle dogs
Format: in vivo, beagle dog
Conditions: male, beagle, dog, plasma, iv, 0.5 mg/kg, BDC dog, 0.5 mg/kg IV bolus; read-out: V dss
Please go through the items and note down their Vd.
Numbers only, in L/kg.

Cc1ccc([C@@H]2O[C@H](CO)[C@@H](O)[C@H](O)[C@H]2O)cc1Cc1ccc(-c2ccc(F)cc2)s1 ... 0.87

Supply recorded Vd for C[C@H]1c2cccc(CC(C)(C)O)c2C[C@H](CO)N1C(=O)Cc1c(Cl)cccc1Cl here.
0.33

###

Tested on: UGT (glucuronidation)
Assay: Liver microsomal glucuronidation assay (dog)
Assay type: in vitro ADME
Details: liver microsomes, pH 7.5, dog, without BSA, 2 µmol/L, 0.5 mg/mL, UDPGA, ND = Clint < 1.8, read-out: Clint, Liver microsomes
value-kind: microsomal CLint at 2 µmol/L

Dear colleague, please send me the reported microsomal CLint at 2 µmol/L for C[C@H]1c2cccc(CC(C)(C)O)c2C[C@H](CO)N1C(=O)Cc1c(Cl)cccc1Cl when you can.
99 µL/min/mg

###

Experiment: Plasma pharmacokinetics after single intravenous administration in bile duct cannulated (BDC) and intact beagle dogs
Type: in vivo, beagle dog
Conditions: male, beagle, dog, plasma, iv, 0.5 mg/kg, BDC dog, 0.5 mg/kg IV bolus, plasma clearance
Give clearance for every item shown.
Numbers only, in mL/min/kg.

Cc1ccc([C@@H]2O[C@H](CO)[C@@H](O)[C@H](O)[C@H]2O)cc1Cc1ccc(-c2ccc(F)cc2)s1 ... 1.32

Let us move to another entry and its clearance.
Identify measured clearance corresponding to C[C@H]1c2cccc(CC(C)(C)O)c2C[C@H](CO)N1C(=O)Cc1c(Cl)cccc1Cl
4.43

###

What AUC was measured for each of the following?
Experiment: Plasma pharmacokinetics after single intravenous administration in bile duct cannulated (BDC) and intact beagle dogs
Type: in vivo, beagle dog
Conditions: male, beagle, dog, plasma, iv, 0.5 mg/kg, intact dog, 0.5 mg/kg IV bolus, plasma, mean ± SD n=4; read-out: AUC0‐48 hr
Numbers only, in µM·h.

C[C@H]1c2cccc(CC(C)(C)O)c2C[C@H](CO)N1C(=O)Cc1c(Cl)cccc1Cl ... 7.94

Name the recorded AUC of the item Cc1ccc([C@@H]2O[C@H](CO)[C@@H](O)[C@H](O)[C@H]2O)cc1Cc1ccc(-c2ccc(F)cc2)s1 in your answer.
20.7

###

Test: Plasma pharmacokinetics after single intravenous administration in bile duct cannulated (BDC) and intact beagle dogs
Type: in vivo, beagle dog
Conditions: male, beagle, dog, plasma, iv, 0.5 mg/kg, BDC dog, 0.5 mg/kg IV bolus
value-kind: half-life (h)
One number for each entry, in h.

C[C@H]1c2cccc(CC(C)(C)O)c2C[C@H](CO)N1C(=O)Cc1c(Cl)cccc1Cl ... 2.5

Then there is this molecule:
Identify the reported half-life for the following entry. Cc1ccc([C@@H]2O[C@H](CO)[C@@H](O)[C@H](O)[C@H]2O)cc1Cc1ccc(-c2ccc(F)cc2)s1
10.9

###

Give measured hepatocyte CLint at 0.3 µmol/L for each item. Keep answers brief.
Assay: Hepatocyte intrinsic clearance with and without ABT (dog)
Assay type: in vitro ADME
Conditions: cryopreserved dog hepatocytes, with 1 mmol/L ABT, 30 minutes pre-incubation; dog hepatocytes, 0.3 µmol/L compound, 1 mmol/L ABT pre‐incubation 30 minutes; read-out: Clint with ABT
Answers are plain numbers, in µL/min/1e6 cells.

Cc1ccc([C@@H]2O[C@H](CO)[C@@H](O)[C@H](O)[C@H]2O)cc1Cc1ccc(-c2ccc(F)cc2)s1 ... 6

Indicate its recorded hepatocyte CLint at 0.3 µmol/L; the molecule in question is C[C@H]1c2cccc(CC(C)(C)O)c2C[C@H](CO)N1C(=O)Cc1c(Cl)cccc1Cl
18.3
